Origin of values: patent US7425640B2

testSystem: HCV RNA-dependent RNA polymerase NS5B (Δ21) (Hepatitis C virus genotype 1b, UniProt P26663)
Sequence (P26663 2420-2989, stated change not applied): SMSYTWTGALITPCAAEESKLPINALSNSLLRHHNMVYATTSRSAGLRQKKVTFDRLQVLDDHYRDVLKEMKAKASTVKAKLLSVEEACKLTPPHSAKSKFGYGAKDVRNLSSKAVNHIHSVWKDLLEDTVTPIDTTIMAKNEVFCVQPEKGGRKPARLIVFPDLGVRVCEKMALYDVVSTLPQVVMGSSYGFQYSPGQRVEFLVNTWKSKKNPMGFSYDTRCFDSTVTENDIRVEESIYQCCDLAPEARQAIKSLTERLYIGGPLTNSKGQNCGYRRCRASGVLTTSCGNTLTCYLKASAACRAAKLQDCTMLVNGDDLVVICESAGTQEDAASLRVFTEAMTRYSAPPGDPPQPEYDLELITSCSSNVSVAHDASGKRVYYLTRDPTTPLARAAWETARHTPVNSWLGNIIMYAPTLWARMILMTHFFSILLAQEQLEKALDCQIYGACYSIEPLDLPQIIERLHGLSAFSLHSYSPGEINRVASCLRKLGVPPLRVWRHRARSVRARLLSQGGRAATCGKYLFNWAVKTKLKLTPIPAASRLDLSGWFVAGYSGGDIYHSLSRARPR
testSummary: Assay for HCV RNA-dependent RNA polymerase activity (SPA, [3H]-GTP incorporation)
Assay type: biochemical
settings: read-out: Δ21 Activity (IC50 μM); 50 nM NS5B (Δ21), class symbols
Listed next: entries and their corresponding IC50.

querySmiles: O=C(Cn1nc(NS(=O)(=O)c2cc(Cl)ccc2Cl)cc1C(=O)N[C@H]1CCCC[C@@H]1OCc1ccccc1)N[C@H]1CCCC[C@@H]1OCc1ccccc1
valueReported: 0.1 to 1 µM
//
querySmiles: O=C(Cn1nccc1C(=O)N[C@H]1CCCC[C@@H]1OCc1ccccc1)N[C@H]1CCCC[C@@H]1OCc1ccccc1
valueReported: 0.1 to 1 µM

Turning to the following molecule.
Fill in: IC50 of O=C(Cn1nc(C(=O)NOCc2cccc3ccccc23)cc1C(=O)N[C@H]1CCCC[C@@H]1OCc1ccccc1)N[C@H]1CCCC[C@@H]1OCc1ccccc1 is ___ 0.1 to 1 µM
